Below are pKi values for D(1A) dopamine receptor (Bos taurus, UniProt Q95136) collected from several publications.
Notebook: values listed as pKi are -log10 of the concentration (mol/L).

MOLECULE	QUANTITATIVE_READOUT
O=C(CCCN1CCC(O)(c2ccc(Cl)cc2)CC1)c1ccc(F)cc1	6.19
CN1CCN(CCCN2c3ccccc3Sc3ccc(C(F)(F)F)cc32)CC1	6.13
OCCN1CCN(CCCC2c3ccc(F)cc3Sc3ccc(C(F)(F)F)cc32)CC1 (stereo not given)	5.72
Cc1ccc(C2(O)CCN(CCCC(=O)c3ccc(F)cc3)CC2)cc1	5.92
CN(C)CCCN1c2ccccc2Sc2ccc(C(F)(F)F)cc21	6.28
OCCC1CCN(CC/C=C2/c3ccc(F)cc3Sc3ccc(C(F)(F)F)cc32)CC1	9.54

// query pKi value for entry OCCC1CCN(CCC=C2c3ccc(F)cc3Sc3ccc(C(F)(F)F)cc32)CC1
7.17

If you can, please state the reported pKi value of CSc1ccc2c(c1)N(CC[C@@H]1CCCCN1C)c1ccccc1S2 .
7.12

Using the record for NC(=O)C1(N2CCCCC2)CCN(CCCC(=O)c2ccc(F)cc2)CC1 , report its pKi.
5.31

What value of pKi has been recorded for this entry: O=C(CCCN1CC=C(n2c(=O)[nH]c3ccccc32)CC1)c1ccc(F)cc1
6.06
